molecular target: CDK6/Cyclin D3 (Homo sapiens (Human), UniProt Q00534); assay: CDK6/Cyclin D3 mobility shift assay; conditions: activated CDK6/Cyclin D3, 3.5 mM ATP, Morrison fit; read-out: CDK6_D3 Ki
Sequence (Q00534 whole entry): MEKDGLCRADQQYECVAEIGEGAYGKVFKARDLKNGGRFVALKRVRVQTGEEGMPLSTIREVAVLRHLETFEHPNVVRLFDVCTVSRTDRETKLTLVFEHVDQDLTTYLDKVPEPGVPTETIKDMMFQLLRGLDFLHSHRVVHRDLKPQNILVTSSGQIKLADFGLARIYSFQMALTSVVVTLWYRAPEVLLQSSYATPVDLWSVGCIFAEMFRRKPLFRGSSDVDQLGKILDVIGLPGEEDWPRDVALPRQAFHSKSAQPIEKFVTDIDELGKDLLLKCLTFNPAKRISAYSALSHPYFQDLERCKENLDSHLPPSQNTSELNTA
Sequence (P30281 whole entry partner): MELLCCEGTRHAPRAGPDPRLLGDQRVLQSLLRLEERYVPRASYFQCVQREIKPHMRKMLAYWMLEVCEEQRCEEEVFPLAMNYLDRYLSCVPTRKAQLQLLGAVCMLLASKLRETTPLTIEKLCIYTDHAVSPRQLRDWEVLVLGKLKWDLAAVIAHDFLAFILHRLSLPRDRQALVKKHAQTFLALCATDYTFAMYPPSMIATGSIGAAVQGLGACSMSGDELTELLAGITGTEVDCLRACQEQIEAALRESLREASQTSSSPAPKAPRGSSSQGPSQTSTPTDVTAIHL
measured.attribute: Ki

compound=Cc1nc2c(F)cc(-c3ccnc(N[C@@H]4CCN(S(C)(=O)=O)C[C@H]4O)n3)cc2n1C(C)C result="11.4 nM"
compound=CC(C)(C)n1cnc2ccc(-c3cc(N[C@@H]4CCN(C(=O)CO)C[C@H]4O)ncc3Cl)nc21 result="9.1 nM"
compound=CC(C)n1c(CO)nc2c(F)cc(-c3nc(N[C@@H]4CCN(S(C)(=O)=O)C[C@H]4O)ncc3Cl)cc21 result="2.8 nM"
compound=Cc1nc2c(F)cc(-c3nc(N[C@@H]4CCN(S(C)(=O)=O)C[C@H]4O)ncc3Cl)cc2n1C1CC1 result="2.1 nM"
compound=CC1(C)OCCn2nc3c(F)cc(-c4nc(N[C@@H]5CCOC[C@H]5O)ncc4F)cc3c21 result="14.7 nM"
compound=CC(C)n1c([C@@H](C)O)nc2c(F)cc(-c3nc(N[C@@H]4CCOC[C@H]4O)ncc3Cl)cc21 result="31.5 nM"
compound=CC(C)n1c([C@H](C)O)nc2c(F)cc(-c3cc(N[C@@H]4CCN(S(C)(=O)=O)C[C@H]4O)ncc3Cl)cc21 result="1.7 nM"
compound=CNCC(=O)N1CC[C@@H](Nc2ncc(Cl)c(-c3cc(F)c4ncn(C(C)C)c4c3)n2)[C@H](O)C1 result="19.9 nM"
compound=CC(C)(C)n1cnc2c(F)cc(-c3nc(N[C@@H]4CCN(C(=O)C5(N)CC(F)(F)C5)C[C@H]4O)ncc3Cl)cc21 result="12.5 nM"
compound=Cc1nc2cc(F)c(-c3nc(N[C@@H]4CCN(S(C)(=O)=O)C[C@H]4O)ncc3Cl)cc2n1C(C)C result="17.5 nM"
compound="CC(C)n1c(C2CCO2)nc2c(F)cc(-c3nc(N[C@@H]4CCN(S(C)(=O)=O)C[C@H]4O)ncc3Cl)cc21 (single isomer, unassigned) [Example A32]" result="7.1 nM"
compound=Cc1nc2c(F)cc(-c3nc(N[C@H]4CCN(S(C)(=O)=O)C[C@@H]4O)ncc3F)cc2n1C(C)C result="30.8 nM"
compound=C[C@H]1COCc2nc3c(F)cc(-c4nc(N[C@@H]5CCN(S(C)(=O)=O)C[C@H]5O)ncc4Cl)cc3n21 result="10.4 nM"
compound=CC(C)n1c([C@H](C)N)nc2c(F)cc(-c3nc(N[C@@H]4CCOC[C@H]4O)ncc3Cl)cc21 result="16.7 nM"
compound=COc1cnc(N[C@@H]2CCN(S(C)(=O)=O)C[C@H]2O)nc1-c1cc(F)c2nc(C)n(C(C)C)c2c1 result="24.6 nM"
compound=Cn1nc2c(F)cc(-c3nc(N[C@@H]4CCOC[C@H]4O)ncc3Cl)cc2c1C(C)(C)N result="14.3 nM"
compound="CC(C)n1c(CC(N)C(F)F)nc2c(F)cc(-c3nc(N[C@@H]4CCOC[C@H]4O)ncc3Cl)cc21 (single isomer, unassigned) [Example A57]" result="19.1 nM"
compound=Cc1nc2ccc(-c3nc(N[C@@H]4CCN(S(C)(=O)=O)C[C@H]4O)ncc3F)cc2n1C(C)(C)C result="1.8 nM"
compound="CC1CNCc2nc3c(F)cc(-c4nc(N[C@@H]5CCOC[C@H]5O)ncc4Cl)cc3n21 (single isomer, unassigned) [Example A55]" result="64.9 nM"
compound=CC(C)(CN)n1cnc2c(F)cc(-c3nc(N[C@@H]4CCOC[C@H]4O)ncc3Cl)cc21 result="55.7 nM"
compound=CC1(C)OCCn2nc3c(F)cc(-c4nc(N[C@@H]5CCN(S(C)(=O)=O)C[C@H]5O)ncc4Cl)cc3c21 result="4.2 nM"
compound="CC(C(F)F)n1c(CO)nc2c(F)cc(-c3nc(N[C@@H]4CCN(S(C)(=O)=O)C[C@H]4O)ncc3Cl)cc21 (stereo partly shown)" result="0.9 nM"
compound=CC(C)n1c(CC2(N)CCCC2)nc2c(F)cc(-c3nc(N[C@@H]4CCOC[C@H]4O)ncc3Cl)cc21 result="56.7 nM"
compound=CC(C)n1c(C(C)(C)O)nc2c(F)cc(-c3nc(N[C@@H]4CCN(S(C)(=O)=O)C[C@H]4O)ncc3Cl)cc21 result="1.7 nM"
compound=CC(C)n1c(CNC2COC2)nc2c(F)cc(-c3nc(N[C@@H]4CCOC[C@H]4O)ncc3Cl)cc21 result="93.3 nM"
compound=CC(C)n1c(C2COC2)nc2c(F)cc(-c3nc(N[C@@H]4CCN(S(C)(=O)=O)C[C@H]4O)ncc3Cl)cc21 result="4.9 nM"
compound=CC(C)n1cnc2c(F)cc(-c3nc(N[C@@H]4CCN(C(=O)C5(C)COC5)C[C@H]4O)ncc3Cl)cc21 result="11.8 nM"
compound=Cn1nc2ccc(-c3nc(N[C@@H]4CCN(S(C)(=O)=O)C[C@H]4O)ncc3Cl)cc2c1C(C)(C)O result="5.1 nM"
